Target entity: T1, human CD40 extracellular domain with C-terminal His-AviTag (human, UniProt P25942 21-193)
T1 construct: not shown: C-terminal His-AviTag
T1 sequence (P25942 21-193): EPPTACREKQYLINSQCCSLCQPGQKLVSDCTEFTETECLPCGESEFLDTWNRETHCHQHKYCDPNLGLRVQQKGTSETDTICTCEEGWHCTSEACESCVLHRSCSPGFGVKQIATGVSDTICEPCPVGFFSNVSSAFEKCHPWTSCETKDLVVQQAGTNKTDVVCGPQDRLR
Protocol text: SPR, antibody captured, CD40 ECD analyte;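 further: biacore SPR at 25 °C in PBS-T pH 7.4, CD40 ECD analyte from 300 nM in 1:3 series, 300 s association, up to 1200 s dissociation, double-referenced, Langmuir 1:1 fit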
Measurement label: Kd (nM)
Report the figure in nM without appending any unit label.

Solved entries:
Binder	Measurement label	Readout units	Experimental result
P1AE1001, humanized anti-CD40 antibody VH1a/VL1b, huIgG1_LALA_PG (antibody, V domains shown, huIgG1 with effector silent Fc (P329G, L234A, L235A)) VH: QVQLVQSGAEVKKPGASVKVSCKASGYSFTGYYIHWVRQAPGQSLEWMGRVIPNAGGTSYNQKFKGRVTLTVDKSISTAYMELSRLRSDDTAVYYCAREGIYWWGQGTTVTVSS VL: DIVVTQTPLSLSVTPGQPASISCRSSQSLVHSNGNTFLHWYLQKPGQSPQLLIYTVSNRFSGVPDRFSGSGSGTDFTLKISRVEAEDVGVYFCSQTTHVPWTFGGGTKVEIK	Kd	nM	2.7
P1AE0819, humanized anti-CD40 antibody VH1d/VL1d, huIgG1_LALA_PG (antibody, V domains shown, huIgG1 with effector silent Fc (P329G, L234A, L235A)) VH: QVQLVQSGAEVKKPGASVKVSCKASGYSFTGYYIHWVRQAPGQSLEWMGRVIPNAGGTSYNQKFKGRVTLSVDKSISTAYMELSRLRSDDTAVYYCAREGIYWWGQGTTVTVSS VL: DVVVTQTPLSLSVTPGQPASISCRSSQSLVHSNGNTFLHWYLQKPGQSPQLLIYTVSNRFSGVPDRFSGSGSGTDFTLKISRVEAEDVGVYFCSQTTHVPWTFGGGTKLEIK	Kd	nM	3.4
P1AE1003, humanized anti-CD40 antibody VH1b/VL1b, huIgG1_LALA_PG (antibody, V domains shown, huIgG1 with effector silent Fc (P329G, L234A, L235A)) VH: QVQLVQSGAEVKKPGASVKVSCKASGYSFTGYYIHWVRQAPGKSLEWMGRVIPNAGGTSYNQKFKGRVTLTVDKSISTAYMELSRLRSDDTAVYYCAREGIYWWGQGTTVTVSS VL: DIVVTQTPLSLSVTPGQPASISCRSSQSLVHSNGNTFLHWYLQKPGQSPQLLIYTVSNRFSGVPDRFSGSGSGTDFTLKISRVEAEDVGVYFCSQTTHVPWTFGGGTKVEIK	Kd	nM	2.5
P1AE0996, humanized anti-CD40 antibody VH1a/VL1d, huIgG1_LALA_PG (antibody, V domains shown, huIgG1 with effector silent Fc (P329G, L234A, L235A)) VH: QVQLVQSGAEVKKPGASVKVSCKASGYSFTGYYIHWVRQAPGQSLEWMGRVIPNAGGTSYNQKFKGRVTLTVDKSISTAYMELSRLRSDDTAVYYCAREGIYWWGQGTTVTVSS VL: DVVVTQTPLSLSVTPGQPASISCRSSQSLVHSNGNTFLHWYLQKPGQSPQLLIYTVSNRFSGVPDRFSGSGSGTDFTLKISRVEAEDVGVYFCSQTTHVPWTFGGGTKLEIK	Kd	nM	3.5

In plain terms, P1AE0401, humanized anti-CD40 antibody VH2b/VL2a, huIgG1_LALA_PG (antibody, V domains shown, huIgG1 with effector silent Fc (P329G, L234A, L235A); also called VL2a/VH2b) VH: EVQLLESGGGLVQPGGSLRLSCAASGYSFTGYYIHWVRQAPGKSLEWVGRVIPNAGGTSYNQKFKGRFTISVDNSKNTAYLQMNSLRAEDTAVYYCAREGIYWWGQGTTVTVSS VL: DIQMTQSPSSLSASVGDRVTITCRSSQSLVHSNGNTFLHWYQQKPGKAPKLLIYTVSNRFSGVPSRFSGSGSGTDFTLTISSLQPEDFATYFCSQTTHVPWTFGGGTKVEIK has a documented Kd of 4.6
